# System: Fibroblast
# Experiment Notes: Multiplex assay against human fibroblast
# Assay type: toxicity, cell-based
# Experimental Context: 12 h, 1 µM, compound concentration 1 uM, replicate 2
Quantity: Population Apoptotic (%)
Numbers only here, please. The scale is %.

Past entries and their recorded results:
INSERT INTO assay_data (compound, quantity, reported_measurement) VALUES
  ('CCC(=O)OCC(=O)[C@@]1(OC(=O)CC)[C@@H](C)C[C@H]2[C@@H]3CCC4=CC(=O)C=C[C@]4(C)[C@@]3(Cl)[C@@H](O)C[C@@]21C [BECLOMETHASONE DIPROPIONATE]', 'Population Apoptotic (%)', 42),
  ('O=c1nc2[nH]c3ccccc3nc-2c(=O)[nH]1 [ALLOXAZINE]', 'Population Apoptotic (%)', 37),
  ('COc1ccc2[nH]c(I)c(CCNC(C)=O)c2c1 [IODOMELATONIN]', 'Population Apoptotic (%)', 32);

Attention now shifts to the item below.
Field Population Apoptotic (%) (system: Fibroblast) for entry CN(C)C(=O)Cn1cc(-c2ccc(-c3nnc4ccccn34)cc2)cn1 = 55

* * *

Overview of reported Population Mitochondria Different-Phenotype (%) across a group of compounds:
# Tested on: HEK-293T
# Experiment Notes: Multiplex assay against HEK293T
# Format: toxicity, cell-based
# Experimental Context: human, 12 h, 1 µM, compound concentration 1 uM, replicate 2
Non-standard residues stand in square brackets, D forms with d. Residues, ends and D or L forms follow the SMILES beside them.
Numbers only here, please. The scale is %.

INSERT INTO measurements (compound, reported_measurement) VALUES
  ('CN1C[C@H](C(=O)N[C@]2(C)O[C@@]3(O)[C@@H]4CCCN4C(=O)[C@H](Cc4ccccc4)N3C2=O)C[C@@H]2c3cccc4[nH]cc(c34)C[C@H]21.CS(=O)(=O)O [DIHYDROERGOTAMINE MESYLATE]', 65),
  ('COc1cc(OC2CCN(C(C)=O)CC2)ccc1C(=O)N1CCC(N2C(=O)OCc3ccccc32)CC1', 59),
  ('Cn1cc(C(=O)OCC2CCN(CCNS(C)(=O)=O)CC2)c2ccccc21', 62),
  ('CSc1nc(NC2CCCC2)c([N+](=O)[O-])c(NC2CCCC2)n1', 68),
  ('COc1cc(Nc2ncc3c(n2)-c2ccc(Cl)cc2C(c2c(F)cccc2OC)=NC3)ccc1C(=O)O', 69),
  ('CC(C)C[C@@H]1NC(=O)[C@@H](C(C)C)NC(=O)[C@@H]2CCCN2C(=O)[C@@H](CC(=O)O)NC(=O)[C@@H](Cc2c[nH]c3ccccc23)NC1=O [BQ-123] (cyclo(L[dW][dD]P[dV]))', 59),
  ('C[C@H](NC(=O)CNC(=O)c1cccc(Cl)c1)c1ccccc1', 52);

Attention now shifts to the item below.
Field Population Mitochondria Different-Phenotype (%) (system: HEK-293T) for entry CN1CCN2c3ccccc3Cc3ccccc3C2C1.Cl (stereo not drawn) [MIANSERIN HYDROCHLORIDE] = 63

* * *

# Tested on: U2OS
# Experiment Notes: Multiplex assay against U2OS
# Assay type: toxicity, cell-based
# Experimental Context: human, 48 h, 1 µM, compound concentration 1 uM, replicate 1
Parameter threshold = 70%. Response is TRUE when Population Healthy Nuclei (%) meets or exceeds it, else FALSE.

Solved cases (5 shown):
INSERT INTO measurements (compound, label_class) VALUES
  ('COc1ccc2[nH]c(I)c(CCNC(C)=O)c2c1', 'TRUE'),
  ('Cc1cc(=O)n(C)c2cc(N3C(=O)CC[C@H](NS(=O)(=O)CC(C)C)[C@H]3c3ccc(Cl)cc3)ccc12', 'TRUE'),
  ('COc1cc(Nc2ncc3c(n2)-c2ccc(Cl)cc2C(c2c(F)cccc2OC)=NC3)ccc1C(=O)O', 'FALSE'),
  ('COc1cc(C(=O)N2CC[C@@H](O)[C@@H](N)C2)cc2nc(-c3cc4ccccc4n3CC3CC3)n(C)c12.Cl', 'FALSE'),
  ('CN(C)C/C=C/C(=O)Nc1ccc(C(=O)N2CCCC(Nc3ncc(Cl)c(-c4c[nH]c5ccccc45)n3)C2)cc1 (centres undefined)', 'FALSE');

Data request: hey, is Population Healthy Nuclei (%) for this one >= 70%? COCCCN1CCC(NC(=O)c2cc(Cl)c(N)c3c2OCC3)CC1 [PRUCALOPRIDE]
Data returned: TRUE

Data request: hey, is Population Healthy Nuclei (%) for this one >= 70%? CN1CCN(c2ccc(Nc3c4ccccc4nc4ccccc34)cc2)CC1.Cl.Cl.O
Data returned: FALSE

Data request: hey, is Population Healthy Nuclei (%) for this one >= 70%? N[C@](CC1c2ccccc2Oc2ccccc21)(C(=O)O)[C@H]1C[C@@H]1C(=O)O
Data returned: TRUE

Data request: hey, is Population Healthy Nuclei (%) for this one >= 70%? OCCCNc1cc(-c2ccnc(Nc3cccc(Cl)c3)n2)ccn1
Data returned: FALSE
